meta.source: the supplement of paper PMC10307832

- Tested on: NCI-H1993
- measurement.protocol: relative viability (nuclei count vs DMSO), 5 days (fraction); higher = more cells survive
- test.parameters: first compound 0.01581 µM
value.kind: relative viability

compound | endpoint.value
CC1(C)CCC(c2ccc(Cl)cc2)=C(CN2CCN(c3ccc(C(=O)NS(=O)(=O)c4ccc(N[C@H](CCN5CCOCC5)CSc5ccccc5)c(S(=O)(=O)C(F)(F)F)c4)cc3)CC2)C1 [Navitoclax] + NC(=O)Nc1cc(-c2cccc(F)c2)sc1C(=O)N[C@H]1CCCNC1 [AZD7762] (partner 0.2 µM) | 1.05
CC1(C)CCC(c2ccc(Cl)cc2)=C(CN2CCN(c3ccc(C(=O)NS(=O)(=O)c4ccc(N[C@H](CCN5CCOCC5)CSc5ccccc5)c(S(=O)(=O)C(F)(F)F)c4)cc3)CC2)C1 [Navitoclax] + O=C(c1cc(Cc2n[nH]c(=O)c3ccccc23)ccc1F)N1CCN(C(=O)C2CC2)CC1 [Olaparib] (partner 8 µM) | 1.32
CC1(C)CCC(c2ccc(Cl)cc2)=C(CN2CCN(c3ccc(C(=O)NS(=O)(=O)c4ccc(N[C@H](CCN5CCOCC5)CSc5ccccc5)c(S(=O)(=O)C(F)(F)F)c4)cc3)CC2)C1 [Navitoclax] + Nc1ncn([C@H]2C[C@H](O)[C@@H](CO)O2)c(=O)n1 [Decitabine] (partner 2 µM) | 0.751
CC1(C)CCC(c2ccc(Cl)cc2)=C(CN2CCN(c3ccc(C(=O)NS(=O)(=O)c4ccc(N[C@H](CCN5CCOCC5)CSc5ccccc5)c(S(=O)(=O)C(F)(F)F)c4)cc3)CC2)C1 [Navitoclax] + Nc1nc2[nH]cc(CCc3ccc(C(=O)N[C@@H](CCC(=O)O)C(=O)O)cc3)c2c(=O)[nH]1 [Pemetrexed] (partner 0.2 µM) | 0.701
